# Test system: NCI-H522 lung
# protocol text: NCI-60 one-dose screen, 48 h (100 = growth as untreated, 0 = no growth, -100 = all killed)
# condition notes: 10 µM unless noted
The panel holds about 83,000 compounds, 20% with a hit somewhere; the sample as a whole holds those more often.

compound	unit annotation	growth
COc1ccc(-c2nn(-c3ccccc3)cc2/C=C2/SC(=S)N(C)C2=O)cc1	%	91.2
CN1CCN(C(=O)c2ccc(NC(=O)Nc3ccc(-c4nc(N5CCOCC5)c5cccn5n4)cc3)cc2)CC1	%	12.4
N#C/C(=C\c1ccc(-c2ccc(Cl)cc2)o1)C(=O)Nc1ncc(Cc2ccc(Cl)cc2)s1	%	46.3
O=C(c1ccccc1)C1C(=O)N2C(=S)N(c3ccccc3)C(=O)C2C1c1ccc(Cl)cc1 (centres undefined)	%	94
O=C1NC(=O)c2c1c1c3ccccc3ccc1c1[nH]c3ccc(Br)cc3c21	%	20.1
O=C1Nc2ccccc2[C@]12CC(c1ccccc1)=NN2	%	39.4
CN[C@]12CC3(C=CC(=O)C=C3)O[C@@]1(Cc1ccc(OC)cc1)N(C)C(=O)N2	%	-46.5
CC[C@]12C=CCN3CC[C@@]4(c5cc(NC(=O)CCC(=O)OCc6cn(Cc7ccc(F)cc7)nn6)c(OC)cc5N(C)[C@H]4[C@@](O)(C(=O)OC)[C@@H]1OC(C)=O)[C@@H]32	%	98.5
Brc1ccc2[nH]cc(-c3nonc3-c3c[nH]c4ccccc34)c2c1	%	13.6
CCN(CC)CCSc1nc(-c2ccccc2)c(C#N)c(=O)[nH]1	%	104
Clc1ccc(Sc2cnc(-c3ccccc3)o2)cc1	%	99.2
COc1ccc(/C=N/C2=C(C#N)C(c3cccc(Cl)c3)c3c(ccc4ccccc34)O2)cc1 (centres undefined)	%	3.61
Cc1ccc(Sc2nnc(/N=C3\C(=O)Nc4ccccc43)s2)cc1	%	94.6
C#CCOc1ccc2ncnc(Nc3ccc(NC(=O)CCl)cc3)c2c1	%	-77.9
Cc1noc(C)c1C(=O)OCc1coc2ccccc2c1=O	%	-15.4
COc1cccc([C@H]2c3[nH]c4ccccc4c3C[C@H]3C(=O)N(CCCCCCC(=O)NO)CC(=O)N23)c1	%	25.6
O=C(c1cc2ccccc2o1)c1nn(-c2ccccc2)/c(=N/N=Cc2cn(-c3ccccc3)nc2-c2cc3ccccc3oc2=O)s1	%	88
NC(=O)CCC(C(=O)O)N1C(=O)c2ccc(O)cc2C1=O (centres undefined)	%	102
O=C1CC(N2C(=O)/C(=C/C(Cl)=C\c3ccc([N+](=O)[O-])cc3)SC2=S)C(=O)N1c1ccc(Cl)cc1 (centres undefined)	%	-26.4

The measured values listed here are drawn from PubChem BioAssay (NCI).
